Reported values of IC50 for individual entries
Assay: Inhibition of EZH2 Y641F mutant (unknown origin) preincubated for 15 mins followed by substrate addition and measured after 45 mins by AlphaLISA assay
Design: species or system Homo sapiens

molecule	IC50 (nM)
CCN(c1cc(-c2ccc3c(c2)n(C)c(=O)n3C2CCN(C)CC2)cc(C(=O)NCc2c(C)cc(C)[nH]c2=O)c1C)C1CCC(N(C)C)CC1 (stereo not drawn)	0.03
CCN(c1cc(-c2ccc3c(c2)n(C)c(=O)n3C2CCN(C)CC2)cc(C(=O)NCc2c(C)cc(C)[nH]c2=O)c1C)C1CCC(N(C)CCOC)CC1 (stereo not drawn)	0.14
CCN(c1cc(-c2ccc(CN3CCOCC3)cc2)cc(C(=O)NCc2c(C)cc(C)[nH]c2=O)c1C)C1CCOCC1	0.37

These measurements were taken from ChEMBL document CHEMBL5550123.
